methodDescription: Biodistribution in Daudi lymphoma xenograft bearing SCID mice
Type: in vivo, mouse
conditionLabel: female, CB-17 SCID, mouse, bone, iv, total radioactivity, co-injection of 50 μg AMD3100, n = 3, 1.5 h p.i., mean ± SD; read-out: Bone uptake
Square brackets hold non-standard residues; d marks the D form. Side chains are listed from the residue outwards. Peptide text beside a SMILES is read from it. * marks the point of attachment. NOTA = O=C(O)CN1CCN(CC(=O)O)CCN(CC(=O)*)CC1; 2Nal = N[C@@H](Cc1ccc2ccccc2c1)C(=O)O; dNMeOrn = CN[C@H](CCCN)C(=O)O; 4Amb = NCc1ccc(C(=O)O)cc1
assayEndpoint: tissue uptake at 1.5 h (%ID/g)
# value in %ID/g; strip the unit string

Q: May I ask what tissue uptake at 1.5 h has been recorded for CN1C(=O)[C@@H](Cc2ccc(O)cc2)NC(=O)CNC(=O)[C@H](Cc2ccc3ccccc3c2)NC(=O)[C@H](CCCNC(=N)N)NC(=O)[C@H]1CCCNC(=O)c1ccc(CNC(=O)CN2CCN(CC(=O)O)CCN(CC(=O)O)CC2)cc1 [[^68Ga]NOTA-pentixafor, metal not drawn] (cyclo([2Nal]G[dY][dNMeOrn]([4Amb-NOTA])R)) ?
Result: 0.16

---

methodDescription: Biodistribution in Daudi lymphoma xenograft bearing SCID mice
Assay type: in vivo, mouse
conditionLabel: female, CB-17 SCID, mouse, spleen, iv, total radioactivity, co-injection of 50 μg AMD3100, n = 3, 1.5 h p.i., mean ± SD; read-out: Spleen uptake
Square brackets hold non-standard residues; d marks the D form. Side chains are listed from the residue outwards. Peptide text beside a SMILES is read from it. * marks the point of attachment. NOTA = O=C(O)CN1CCN(CC(=O)O)CCN(CC(=O)*)CC1; 2Nal = N[C@@H](Cc1ccc2ccccc2c1)C(=O)O; dNMeOrn = CN[C@H](CCCN)C(=O)O; 4Amb = NCc1ccc(C(=O)O)cc1
assayEndpoint: tissue uptake at 1.5 h (%ID/g)
Give the value in %ID/g but do not write %ID/g after it.

Q: Given the compound CN1C(=O)[C@@H](Cc2ccc(O)cc2)NC(=O)CNC(=O)[C@H](Cc2ccc3ccccc3c2)NC(=O)[C@H](CCCNC(=N)N)NC(=O)[C@H]1CCCNC(=O)c1ccc(CNC(=O)CN2CCN(CC(=O)O)CCN(CC(=O)O)CC2)cc1 [[^68Ga]NOTA-pentixafor, metal not drawn] (cyclo([2Nal]G[dY][dNMeOrn]([4Amb-NOTA])R)) , what is its reported tissue uptake at 1.5 h?
Result: 0.54

---

Consider the following molecules; for each one, report its tissue uptake at 1.5 h.
methodDescription: Biodistribution in Daudi lymphoma xenograft bearing SCID mice
Assay type: in vivo, mouse
conditionLabel: female, CB-17 SCID, mouse, kidney, iv, 15.2 MBq, total radioactivity, tracer only, i.v., 1.5 h p.i., mean ± SD; read-out: Kidney uptake
Square brackets hold non-standard residues; d marks the D form. Side chains are listed from the residue outwards. Peptide text beside a SMILES is read from it. * marks the point of attachment. DOTA = O=C(O)CN1CCN(CC(=O)O)CCN(CC(=O)*)CCN(CC(=O)O)CC1; NOTA = O=C(O)CN1CCN(CC(=O)O)CCN(CC(=O)*)CC1; 2Nal = N[C@@H](Cc1ccc2ccccc2c1)C(=O)O; dNMeOrn = CN[C@H](CCCN)C(=O)O; 4Amb = NCc1ccc(C(=O)O)cc1

Q: Item under review: CN1C(=O)[C@@H](Cc2ccc(O)cc2)NC(=O)CNC(=O)[C@H](Cc2ccc3ccccc3c2)NC(=O)[C@H](CCCNC(=N)N)NC(=O)[C@H]1CCCNC(=O)c1ccc(CNC(=O)CN2CCN(CC(=O)O)CCN(CC(=O)O)CCN(CC(=O)O)CC2)cc1 [[^68Ga]pentixafor, metal not drawn] (cyclo([dY][dNMeOrn]([4Amb-DOTA])R[2Nal]G)) . Reported tissue uptake at 1.5 h?
Result: 1.65 %ID/g

Q: What value of tissue uptake at 1.5 h has been reported for the following molecule? CN1C(=O)[C@@H](Cc2ccc(O)cc2)NC(=O)CNC(=O)[C@H](Cc2ccc3ccccc3c2)NC(=O)[C@H](CCCNC(=N)N)NC(=O)[C@H]1CCCNC(=O)c1ccc(CNC(=O)CN2CCN(CC(=O)O)CCN(CC(=O)O)CC2)cc1 [[^68Ga]NOTA-pentixafor, metal not drawn] (cyclo([2Nal]G[dY][dNMeOrn]([4Amb-NOTA])R))
Result: 2.71 %ID/g

Attribution: paper PMC5031577
